- Test system: SK-MEL-5
- ASSAY PROCEDURE: in vitro melanoma cell growth inhibition (NCI screen)
ASSAY READOUT: cytotoxicity log GI50 (M)
The answer is to be given in M; state only the numeric part.

COMPOUND	UNIT OF MEASURE	READING
CCC(CC)n1c(C)nc2c1C(=O)c1ccccc1C2=O	M	-4.80
COc1ccc(CNC2=C(NC(C)=O)C(=O)c3ccccc3C2=O)cc1	M	-5.13
Cc1nc2c(n1CC(C)(C)C)C(=O)c1ccccc1C2=O	M	-4.37
COc1ccc(C(=O)NC2=C(Cl)C(=O)c3ccccc3C2=O)cc1	M	-5.89
CCC(C)n1c(C)nc2c1C(=O)c1ccccc1C2=O (stereo not drawn)	M	-4.57
COC(=O)CCC(=O)NC1=C(Nc2ccc(OC)cc2)C(=O)c2ccccc2C1=O	M	-5.75
Cc1nc2c(n1Cc1ccc(F)cc1)C(=O)c1ccccc1C2=O	M	-4.99
CCC(C)CNC1=C(NC(C)=O)C(=O)c2ccccc2C1=O (stereo not drawn)	M	-4.50
Cc1nc2c(n1CCO)C(=O)c1ccccc1C2=O	M	-4.95
CC(=O)NC1=C(NCc2ccc(Cl)cc2)C(=O)c2ccccc2C1=O	M	-5.26

The compound identified as `COc1cc(OC)cc(C(=O)NC2=C(Cl)C(=O)c3ccccc3C2=O)c1` registered its cytotoxicity log GI50 at -5.89

compound `COC(=O)CCC(=O)NC1=C(NCc2ccccc2)C(=O)c2ccccc2C1=O` , cytotoxicity log GI50 observed: -4.92

Briefly, cytotoxicity log GI50 measured for CCCC(C)n1c(C)nc2c1C(=O)c1ccccc1C2=O (stereo not drawn) : -4.88

response.value for `CC(=O)NC1=C(NCCN(C)C)C(=O)c2ccccc2C1=O` (field: cytotoxicity log GI50) = -5.14

Kindly note the recorded cytotoxicity log GI50 for CCCC(C)NC1=C(NC(C)=O)C(=O)c2ccccc2C1=O (stereo not drawn) , which is -4.13

----------
In this section, each of the molecules is paired with its reported cytotoxicity log GI50.
- Tested on: MALME-3M
- ASSAY PROCEDURE: in vitro melanoma cell growth inhibition (NCI screen)
Just the number please, in M, no unit attached.

MOLECULE	cytotoxicity log GI50 (M)
CC(=O)NC1=C(NCCCl)C(=O)c2ccccc2C1=O [Compound 43]	-4.86

The molecule identified as CC(=O)NC1=C(NCCN(C)C)C(=O)c2ccccc2C1=O [Compound 39] registered its cytotoxicity log GI50 at -5.12

cytotoxicity log GI50 reading for CCNC1=C(NC(=O)c2ccc(OC)cc2)C(=O)c2ccccc2C1=O [Compound 49] : -4.67

The reported cytotoxicity log GI50 of the molecule CCCC(C)NC1=C(NC(C)=O)C(=O)c2ccccc2C1=O (centres unmarked) [Compound 33] was -4.44

The molecule listed as CCc1nc2c(n1CC)C(=O)c1ccccc1C2=O [Compound 23] shows cytotoxicity log GI50 equal to -4.81

----------
Listed below: cytotoxicity log GI50 values for each entry.
- Test system: MALME-3M
- ASSAY PROCEDURE: in vitro melanoma cell growth inhibition (NCI screen)
Expressed in M, but write only the number.

Illustrative cases are given below, each with its answer.
NC1=C(NC(=O)Cc2ccccc2F)C(=O)c2ccccc2C1=O -4.87
Cc1nc2c(n1CCO)C(=O)c1ccccc1C2=O -4.93

Record for `CC(=O)NC1=C(NCCO)C(=O)c2ccccc2C1=O` under target or system MALME-3M: cytotoxicity log GI50 reported as -4.89

----------
This listing pairs compounds with measured cytotoxicity log GI50.
- Tested on: HOP-92
- ASSAY PROCEDURE: in vitro non-small cell lung cancer cell growth inhibition (NCI screen)
State just the number; it will be interpreted in M.

Field: example entries. Status: answers known.
COMPOUND	READING
Cc1nc2c(n1CC(C)C)C(=O)c1ccccc1C2=O	-4.99
O=C(NC1=C(Cl)C(=O)c2ccccc2C1=O)c1ccc(F)cc1	-5.79
CCC(CC)n1c(C)nc2c1C(=O)c1ccccc1C2=O	-4.65
CCCC(C)n1c(C)nc2c1C(=O)c1ccccc1C2=O (stereo not shown)	-4.78
CC(=O)NC1=C(NCC(C)C)C(=O)c2ccccc2C1=O	-4.85

Form: compound = `NC1=C(NC(=O)Cc2ccc(F)cc2)C(=O)c2ccccc2C1=O` ; cytotoxicity log GI50 = -4.48

Note to self: cytotoxicity log GI50 recorded for `O=C(Cc1ccc(F)cc1)NC1=C(Cl)C(=O)c2ccccc2C1=O` was -5.72

Item: `COC(=O)CCC(=O)NC1=C(Nc2ccc(OC)cc2)C(=O)c2ccccc2C1=O` | cytotoxicity log GI50: -5.66

Sample `COC(=O)CCC(=O)NC1=C(NCc2ccccc2)C(=O)c2ccccc2C1=O` ; cytotoxicity log GI50 observed: -4.80

Value of measured cytotoxicity log GI50 for the entry `O=C(O)CCc1nc2c(n1Cc1ccccc1)C(=O)c1ccccc1C2=O` : -5.26

----------
- System: ACHN
- ASSAY PROCEDURE: in vitro renal cancer cell growth inhibition (NCI screen)
ASSAY READOUT: cytotoxicity log GI50 (M)
Quick reminder: number only, in M, skip the unit.

Here's what some known entries look like.
O=C(NC1=C(Cl)C(=O)c2ccccc2C1=O)c1ccc(F)cc1 -6.03
O=C1c2ccccc2C(=O)c2[nH]c(Cc3ccc(F)cc3)nc21 -4.85
CC(=O)NC1=C(NCCC(C)C)C(=O)c2ccccc2C1=O -7.52
O=C(NC1=C(Cl)C(=O)c2ccccc2C1=O)c1ccccc1 -4.68
CC(=O)NC1=C(NCC(C)(C)C)C(=O)c2ccccc2C1=O -4.57
CCC(C)(C)NC1=C(NC(C)=O)C(=O)c2ccccc2C1=O -4.82
Cc1nc2c(n1C(C)(C)C)C(=O)c1ccccc1C2=O -4.31
O=C(Cc1ccc(F)cc1)NC1=C(Cl)C(=O)c2ccccc2C1=O -5.70

Turning to the following compound.
Given the compound `CCn1c(Cc2ccc(F)cc2)nc2c1C(=O)c1ccccc1C2=O` and test system ACHN, the measured cytotoxicity log GI50 is -4.85

----------
- Tested on: UACC-62
- ASSAY PROCEDURE: in vitro melanoma cell growth inhibition (NCI screen)
Let's look at some molecules and their measured cytotoxicity log GI50.

MOLECULE	cytotoxicity log GI50
COC(=O)CCC(=O)NC1=C(NCc2ccccc2)C(=O)c2ccccc2C1=O [Compound 55]	-4.76 M

Lab note: measured cytotoxicity log GI50 of COC(=O)CCC(=O)NC1=C(Nc2ccc(OC)cc2)C(=O)c2ccccc2C1=O [Compound 56] was -5.67 M

Measured cytotoxicity log GI50, CCn1c(-c2cc(OC)cc(OC)c2)nc2c1C(=O)c1ccccc1C2=O [Compound 28] : -4.69 M

// cytotoxicity log GI50 value for CCC(CC)n1c(C)nc2c1C(=O)c1ccccc1C2=O [Compound 10] : -4.99 M

Record summary for NC1=C(NC(=O)Cc2ccccc2F)C(=O)c2ccccc2C1=O [Compound 3b] : reported cytotoxicity log GI50 = -4.42 M

Sample CC(=O)NC1=C(NCC(C)(C)C)C(=O)c2ccccc2C1=O [Compound 38] ; cytotoxicity log GI50 observed: -4.41 M

----------
- Tested on: CCRF-CEM
- ASSAY PROCEDURE: in vitro leukemia cell growth inhibition (NCI screen)
// false (0) strictly below -5 M in cytotoxicity log GI50; true (1) otherwise

Worked set:
MOLECULE	TARGET	CATEGORY LABEL
Cc1nc2c(n1Cc1ccc(Cl)cc1)C(=O)c1ccccc1C2=O [Compound 20]	CCRF-CEM	false (0)
CC(=O)NC1=C(NCC(C)(C)C)C(=O)c2ccccc2C1=O [Compound 38]	CCRF-CEM	true (1)
COc1ccc(Cn2c(C)nc3c2C(=O)c2ccccc2C3=O)cc1 [Compound 18]	CCRF-CEM	false (0)
O=C(O)CCCc1nc2c(n1Cc1ccccc1)C(=O)c1ccccc1C2=O [Compound 57]	CCRF-CEM	false (0)
NC1=C(NC(=O)Cc2ccc(F)cc2)C(=O)c2ccccc2C1=O [Compound 3c]	CCRF-CEM	true (1)
COc1ccc(C(=O)NC2=C(Cl)C(=O)c3ccccc3C2=O)cc1 [Compound 2g]	CCRF-CEM	false (0)
CCNC1=C(NC(=O)CC)C(=O)c2ccccc2C1=O [Compound 45]	CCRF-CEM	true (1)
CC(=O)NC1=C(NC(C)(C)C)C(=O)c2ccccc2C1=O [Compound 32]	CCRF-CEM	false (0)

Evaluate CCC(C)(C)NC1=C(NC(C)=O)C(=O)c2ccccc2C1=O [Compound 36] : cytotoxicity log GI50 at minimum -5 M?
true (1)

Is the recorded value of cytotoxicity log GI50 equal to or greater than -5 M for this molecule? O=C(Cc1ccccc1F)NC1=C(Cl)C(=O)c2ccccc2C1=O [Compound 2i]
false (0)

Form field: cytotoxicity log GI50 at least -5 M? Entry: COC(=O)CCCC(=O)NC1=C(NCc2ccccc2)C(=O)c2ccccc2C1=O [Compound 51]
true (1)
